Form field: EC50 (Obeca Stat 5 functional assay) (one value per entry).
# system name: T1, chimeric Leptin (Hu)-EPO (Mu) receptor presented by the 32D OBECA cell line (human; murine, UniProt P48357 22-839; P14753 250-507)
# T1 sequence (looked up): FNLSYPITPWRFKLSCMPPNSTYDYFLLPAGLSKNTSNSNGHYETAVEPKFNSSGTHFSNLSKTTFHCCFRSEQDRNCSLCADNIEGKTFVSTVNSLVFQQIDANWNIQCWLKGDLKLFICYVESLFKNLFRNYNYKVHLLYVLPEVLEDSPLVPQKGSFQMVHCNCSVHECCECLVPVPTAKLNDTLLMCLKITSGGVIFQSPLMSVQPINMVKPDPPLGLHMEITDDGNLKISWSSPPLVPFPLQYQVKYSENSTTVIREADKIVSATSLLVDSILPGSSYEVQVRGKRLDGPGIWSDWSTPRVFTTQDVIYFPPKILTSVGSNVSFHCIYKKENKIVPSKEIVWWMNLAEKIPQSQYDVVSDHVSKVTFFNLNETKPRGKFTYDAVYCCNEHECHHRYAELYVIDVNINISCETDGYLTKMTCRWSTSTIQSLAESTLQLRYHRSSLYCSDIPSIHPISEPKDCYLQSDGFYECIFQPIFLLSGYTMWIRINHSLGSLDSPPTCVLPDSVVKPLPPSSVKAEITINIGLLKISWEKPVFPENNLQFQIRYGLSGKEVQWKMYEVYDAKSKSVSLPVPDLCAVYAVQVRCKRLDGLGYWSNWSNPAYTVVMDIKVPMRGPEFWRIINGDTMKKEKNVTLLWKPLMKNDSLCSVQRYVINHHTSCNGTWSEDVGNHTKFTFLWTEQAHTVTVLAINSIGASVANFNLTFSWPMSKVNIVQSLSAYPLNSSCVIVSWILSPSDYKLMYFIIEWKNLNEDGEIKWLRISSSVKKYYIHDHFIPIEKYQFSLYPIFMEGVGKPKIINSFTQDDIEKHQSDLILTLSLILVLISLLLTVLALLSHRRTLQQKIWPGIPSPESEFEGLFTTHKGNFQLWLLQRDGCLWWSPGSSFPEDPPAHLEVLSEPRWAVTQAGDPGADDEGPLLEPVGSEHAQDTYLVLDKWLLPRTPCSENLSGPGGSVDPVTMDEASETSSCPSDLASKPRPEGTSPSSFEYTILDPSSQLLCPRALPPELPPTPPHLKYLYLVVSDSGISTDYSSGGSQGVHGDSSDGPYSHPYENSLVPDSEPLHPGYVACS
# experimental protocol: cell-based or functional assay
Give just the number in nM; leave the unit off.

For orientation, consider the following solved cases.
• Seal leptin with N-terminal methionine, with amino acids 23-49 replaced with amino acids 25-51 (AB loop) of metreleptin, and with amino acids 93-119 replaced … (ligand, Seal-human chimeric leptin; also called Compound 47) MPIQRVQDDTKTLIKTIITRINDISHTQSVSSKQKVTGLDFIPGLHPILTLSGMDQILATYQQILTSLQSRSVVQIANDLANLRALLRLLASAKSCHLPWASGLETLDSLGGVLEASGYSTEVVALSRLKAALQDMLRQLDRNPGC = 0.0625
• Seal leptin with N-terminal methionine, and with amino acids 71-92 replaced with amino acids 73-94 (helix 3) of metreleptin, and with amino acids 23-49 … (ligand, Seal-human chimeric leptin; also called Compound 51) MPIQRVQDDTKTLIKTIITRINDISHTQSVSSKQKVTGLDFIPGLHPILTLSGMDQILATYQQILTSLQSRNVIQISNDLENLRDLLHVLAFSKSCPVPRARGSDTIKGLGNVLRASVHSTEVVALSRLKAALQDMLRQLDRNPGC = 0.038
• Seal leptin with N-terminal methionine, and with amino acids 23-49 replaced with amino acids 25-51 (AB loop) of metreleptin (ligand, Seal-human chimeric leptin; also called Compound 46) MPIQRVQDDTKTLIKTIITRINDISHTQSVSSKQKVTGLDFIPGLHPILTLSGMDQILATYQQILTSLQSRSVVQIANDLANLRALLRLLASAKSCPVPRARGSDTIKGLGNVLRASVHSTEVVALSRLKAALQDMLRQLDRNPGC = 0.042

Attention now shifts to the item below.
Notebook: Seal leptin with N-terminal methionine, and with amino acids 50-65 replaced with amino acids 52-67 (helix 2) of metreleptin (ligand, Seal-human chimeric leptin; also called Compound 43) MPIQRVQDDTKTLIKTIITRINDISPPQGVCSRPRVAGLDFIPRVQSVRTLSKMDQTLAVYQQILTSLQSRSVVQIANDLANLRALLRLLASAKSCPVPRARGSDTIKGLGNVLRASVHSTEVVALSRLKAALQDMLRQLDRNPGC , EC50 (Obeca Stat 5 functional assay) read as 0.054
